Assign Geometric mean IC50, BxPC3 and HEK-Blue TGF-beta reporter gene co-culture assay to each entry below.
biological target: TGF-beta produced and activated by BxPC3 cells; assay: cell-based or functional assay
The reply must contain the numeric value and, after it, the unit.

The cases that follow already have their Geometric mean IC50, BxPC3 and HEK-Blue TGF-beta reporter gene co-culture assay on record.
Binder	Recorded measurement
humanised antibody 4856 Fab graft gL3gH13 (Fab, V domains shown, Human gamma-1 CH1 (G1m17) and human C-kappa (K1m3); also called 4856gL3gH13) VH: EVQLVESGGGLVKPGGSLRLSCAASGFSLSSYDMSWVRQAPGKGLEWIGIIYGGSGSTWYASWAKGRFTISRDSAKNSVYLQMNSLRAEDTAVYYCARGRDAGAGGSRNGYSLWGQGTLVTVSS VL: AYDMTQSPSTLSASVGDRVTITCQASESIYSGLAWYQQKPGKAPKLLIYAASDLASGVPSRFSGSGSGTEYTLTISSLQPDDFATYYCQQTWTDGGIDNPFGGGTKVEIKR	3.95 nM
humanised antibody 4856 Fab graft gL3gH23 (Fab, V domains shown) VH: EVQLVESGGGLVKPGGSLRLSCAASGFSLSSYDMSWVRQAPGKGLEWIGIIYGGSGSTWYASWAKGRFTISRDSAKNSVYLQMNSLRAEDTAVYYCARGRDAGAGGSRNAYSLWGQGTLVTVSS VL: AYDMTQSPSTLSASVGDRVTITCQASESIYSGLAWYQQKPGKAPKLLIYAASDLASGVPSRFSGSGSGTEYTLTISSLQPDDFATYYCQQTWTDGGIDNPFGGGTKVEIKR	9.1 nM
humanised antibody 4856 Fab graft gL3gH20 (Fab, V domains shown) VH: EVQLVESGGGLVKPGGSLRLSCAASGFSLSSYDMSWVRQAPGKGLEWISIIYGGSGSTWYASWAKGRFTMSKDSAKNSVYLQMNSLRAEDTAVYYCARGRDAGAGGSRNGYSLWGQGTLVTVSS VL: AYDMTQSPSTLSASVGDRVTITCQASESIYSGLAWYQQKPGKAPKLLIYAASDLASGVPSRFSGSGSGTEYTLTISSLQPDDFATYYCQQTWTDGGIDNPFGGGTKVEIKR	4.63 nM

Prompt: Output Geometric mean IC50, BxPC3 and HEK-Blue TGF-beta reporter gene co-culture assay of humanised antibody 4856 Fab graft gL3gH29 (Fab, V domains shown) VH: EVQLVESGGGLVKPGGSLRLSCAASGFSLSSYDMSWVRQAPGKGLEWIGIIYGGSGSTWYASWAKGRFTISRDSAKNSVYLQMNSLRAEDTAVYYCARGRDAGAGGSRDGYSLWGQGTLVTVSS VL: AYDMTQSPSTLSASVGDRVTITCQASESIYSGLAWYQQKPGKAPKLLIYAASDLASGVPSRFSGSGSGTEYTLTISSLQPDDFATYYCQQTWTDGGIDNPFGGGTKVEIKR
Completion: 3.77 nM

Recorded values, source patent US20200407436A1.
